Assay: Viability qHTS for spleen associated tyrosine kinase inhibitor (SYKi) naive MV4-11 cells (AID 1963823); note: nearly all actives have a fitted effect of over 40% in size
Details: MV4-11 AML viability, CellTiter-Glo luminescence, 72 h; series mostly up to 45 µM
Inconclusive results are not listed. Calls of active or inactive are those of the source. Calls come from the whole dose curve; as a rule, active = well fitted cell-killing curve with a large enough effect; inconclusive = small, poorly fitted or top-dose-only effect, or effect the other way; inactive = no such curve, though single readings can be large or run the other way.
assayReadout: viability (% of control)

Here's what some known entries look like.
CC1OC(OC2C(OC3C(O[C@H]4CC[C@@]5(C)C(CC[C@]6(C)C5CC=C5C7CC(C)(C)CC(O)[C@]7(C)CC[C@]56C)C4(C)C)OC(C(=O)O)C(O)C3O)OCC(O)C2O)C(O)C(O)C1O (stereo partly drawn) ... 90.6% [at 9.25 µM] (inactive)
CC1(C)CC[C@]2(C(=O)O)CC[C@]3(C)C(=CCC4[C@@]5(C)CC[C@H](O[C@@H]6O[C@H](C(=O)O)[C@@H](O)[C@H](O[C@@H]7O[C@H](CO)[C@H](O)[C@H](O)[C@H]7O)[C@H]6O[C@@H]6O[C@H](CO)[C@@H](O)[C@H](O)[C@H]6O)C(C)(C)C5CC[C@]43C)[C@@H]2C1 (stereo partly drawn) ... 77.5% [at 4.97 µM] (inactive)

# evaluate next
Q: Any idea what its viability (% of control) is? The compound is CC1(CO)CC(O)C2(C)CCC3(C)C(=CCC4C5(C=O)CCC(OC6OC(C(=O)O)C(O)C(O)C6OC6OC(C(=O)O)C(O)C(O)C6O)C(C)(C)C5CCC43C)C2C1 (stereo not drawn)
A: 87.7% [at 9.25 µM] (inactive)

* * *

Experiment: Cellular viability qHTS for adrenocortical cancer (ACC) cell line NCI-H295R (AID 1963990); note: nearly all actives have a fitted effect of over 60% in size
Conditions: CellTiter-Glo ATP luminescence, 48 h; series mostly up to 46.1 µM
Inconclusive results are not listed. The source made the active and inactive calls. Calls come from the whole dose curve; as a rule, active = well fitted cell-killing curve with a large enough effect; inconclusive = small, poorly fitted or top-dose-only effect; inactive = flat fitted curve, though single readings scatter.
Tick one outcome: active, inactive

Solved entries (count: 4):
CC(=O)N1CCN(c2ccc(NC(=O)Cc3cnc(-c4ccnc(F)c4)c(C)c3)nc2)CC1 ... inactive
CN[C@@H](C)C(=O)N[C@H](C(=O)N1CCC[C@H]1C(=O)Nc1snnc1-c1ccccc1)C1CCCCC1 ... inactive
O=C(O)c1ccc(OCCN2CCCCC2)cc1 ... inactive
CC[C@H](NC(C)C)[C@H](O)c1ccc(O)c2[nH]c(=O)ccc12 ... inactive

In the following, a different molecule is considered.
Q: Hey, what did the test say about COc1ccc(-c2ccc3ncc4c(c3c2)n(-c2ccc(N3CCNCC3)c(C(F)(F)F)c2)c(=O)n4C)cn1 ?
A: active

* * *

Test: Cellular viability qHTS for adrenocortical cancer (ACC) cell line NCI-H295R (AID 1963990); note: nearly all actives have a fitted effect of over 60% in size
Conditions: CellTiter-Glo ATP luminescence, 48 h; series mostly up to 46.1 µM
Records with an inconclusive call do not appear. The source made the active and inactive calls. Calls follow the shape of the dose curve; as a rule, active = well fitted cell-killing curve with a large enough effect; inconclusive = small, poorly fitted or top-dose-only effect; inactive = flat fitted curve, though single readings scatter.
Tick one outcome: label 1 (active), label 0 (inactive)

Solved entries (count: 8):
CCCCCCCCCCCCCC(=O)OC(C)C ... label 0
Cn1ncc(Cl)c1-c1cc(C(=O)NC(CN)Cc2ccc(F)c(F)c2)oc1Cl (stereo unspecified) ... label 1
CCC(=O)O[C@]1(C(=O)COC)[C@@H](C)C[C@H]2[C@@H]3CCC4=CC(=O)C=C[C@]4(C)C3(F)[C@@H](O)C[C@@]21C (stereo partly specified) ... label 0
COc1ccc([C@@H]2CNC(=O)C2)cc1OC1CCCC1 ... label 0
CN(CCOc1ccc(CC2SC(=O)NC2=O)cc1)c1ccccn1 (stereo unspecified) ... label 0
Cc1cccc(C)c1NC(=O)CN1CCCCCC1 ... label 0
CC(=O)CCCCn1c(=O)c2c(ncn2C)n(C)c1=O ... label 0
COc1cc(N2CCC(N3CCN(C)CC3)CC2)ccc1Nc1ncnc(Nc2ccccc2S(=O)(=O)C(C)C)n1 ... label 1

Q: Hey, what did the test say about COc1cc(N2CCC(N3CCN(C)CC3)CC2)ccc1Nc1ncc(Cl)c(Nc2ccccc2S(=O)(=O)C(C)C)n1 ?
A: label 1

Q: Hey, what did the test say about NC(=O)c1cnc2[nH]ccc2c1NC1C2CC3C[C@H]1CC(O)(C3)C2 (stereo partly specified) ?
A: label 0

Q: Hey, what did the test say about CCN(CC)CCNC(=O)c1cc(Br)c(N)cc1OC ?
A: label 0
